# TARGET_OR_SYSTEM: CYP1A2 (Homo sapiens)
# Construct: in the assay of CYP enzyme activity in human liver microsome; from tissue; host or cells: human liver microsome
# Sequence (P05177 1-516): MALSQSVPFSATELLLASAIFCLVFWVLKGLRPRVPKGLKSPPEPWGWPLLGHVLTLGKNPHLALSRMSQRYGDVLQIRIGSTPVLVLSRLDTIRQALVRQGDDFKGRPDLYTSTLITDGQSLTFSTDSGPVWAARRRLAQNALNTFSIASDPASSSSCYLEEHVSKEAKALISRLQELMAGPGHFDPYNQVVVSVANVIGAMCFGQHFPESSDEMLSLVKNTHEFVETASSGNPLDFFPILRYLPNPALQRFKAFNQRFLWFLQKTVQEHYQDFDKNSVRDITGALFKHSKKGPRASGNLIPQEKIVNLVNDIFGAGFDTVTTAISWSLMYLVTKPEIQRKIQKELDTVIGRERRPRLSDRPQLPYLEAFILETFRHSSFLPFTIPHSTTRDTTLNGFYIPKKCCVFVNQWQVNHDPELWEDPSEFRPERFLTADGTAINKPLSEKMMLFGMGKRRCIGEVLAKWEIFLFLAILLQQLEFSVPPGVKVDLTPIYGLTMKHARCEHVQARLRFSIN
# PROTOCOL_NOTES: inhibition of CYP enzyme activity in human liver microsome, CYP1A2
# Format: in vitro ADME
EXPERIMENTAL_READOUT: IC50

{"MOLECULE": "C=CC(=O)N1[C@@H]2CC[C@H]1C[C@H](Nc1cc3c(Nc4ccc(Cl)c(Cl)c4F)ncnc3cc1OC)C2", "TARGET_OR_SYSTEM": "CYP1A2 (Homo sapiens)", "RESULT": "> 50 µM"}

====

# TARGET_OR_SYSTEM: HER1 (ErbB1) (Homo sapiens)
# Sequence (P00533 25-1210): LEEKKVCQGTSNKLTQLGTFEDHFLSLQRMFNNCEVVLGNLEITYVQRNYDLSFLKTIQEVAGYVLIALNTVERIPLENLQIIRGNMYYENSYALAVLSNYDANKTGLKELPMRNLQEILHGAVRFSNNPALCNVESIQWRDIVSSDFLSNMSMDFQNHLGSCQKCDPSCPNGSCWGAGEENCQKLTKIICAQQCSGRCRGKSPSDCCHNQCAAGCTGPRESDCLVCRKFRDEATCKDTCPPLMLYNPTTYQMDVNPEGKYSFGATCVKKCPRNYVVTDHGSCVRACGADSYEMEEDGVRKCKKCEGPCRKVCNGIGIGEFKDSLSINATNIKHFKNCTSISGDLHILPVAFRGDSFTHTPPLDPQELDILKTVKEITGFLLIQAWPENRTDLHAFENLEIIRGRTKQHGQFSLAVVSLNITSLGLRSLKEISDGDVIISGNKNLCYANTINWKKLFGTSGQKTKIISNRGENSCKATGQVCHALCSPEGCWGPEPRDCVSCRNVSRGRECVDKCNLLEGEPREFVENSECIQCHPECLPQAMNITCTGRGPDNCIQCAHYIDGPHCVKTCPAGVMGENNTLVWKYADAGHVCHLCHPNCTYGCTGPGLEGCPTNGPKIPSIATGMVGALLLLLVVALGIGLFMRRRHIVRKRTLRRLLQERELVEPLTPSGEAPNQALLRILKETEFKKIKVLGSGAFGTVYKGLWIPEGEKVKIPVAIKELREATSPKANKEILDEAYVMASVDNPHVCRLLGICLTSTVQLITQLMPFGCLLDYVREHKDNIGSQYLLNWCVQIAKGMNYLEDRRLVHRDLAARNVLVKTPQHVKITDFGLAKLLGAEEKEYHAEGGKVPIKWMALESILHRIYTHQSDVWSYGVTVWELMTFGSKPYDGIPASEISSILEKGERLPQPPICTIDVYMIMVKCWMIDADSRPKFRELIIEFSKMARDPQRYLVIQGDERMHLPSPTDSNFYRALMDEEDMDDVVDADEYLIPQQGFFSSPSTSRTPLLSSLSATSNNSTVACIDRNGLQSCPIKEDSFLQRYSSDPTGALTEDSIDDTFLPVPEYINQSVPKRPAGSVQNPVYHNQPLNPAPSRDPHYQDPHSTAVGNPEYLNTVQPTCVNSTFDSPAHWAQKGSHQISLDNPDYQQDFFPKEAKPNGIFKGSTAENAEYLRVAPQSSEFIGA
Catalogue of compounds with associated IC50
EXPERIMENTAL_READOUT: IC50 (nM)

{"MOLECULE": "C=CC(=O)N1[C@@H]2CC[C@H]1C[C@H](Oc1cc3c(Nc4ccc(Cl)c(Cl)c4F)ncnc3cc1OCCCN1CCOCC1)C2", "EXPERIMENTAL_READOUT": "IC50", "QUANTITATIVE_READOUT": 10}
{"MOLECULE": "C=CC(=O)N1[C@@H]2CC[C@H]1C[C@H](Oc1cc3c(Nc4ccc(Cl)c(Cl)c4F)ncnc3cc1OCCCO)C2", "EXPERIMENTAL_READOUT": "IC50", "QUANTITATIVE_READOUT": 5}
{"MOLECULE": "C=CC(=O)N1C[C@H]2C[C@@H](C1)[C@H]2Oc1cc2c(Nc3cccc(Cl)c3F)ncnc2cc1OC", "EXPERIMENTAL_READOUT": "IC50", "QUANTITATIVE_READOUT": 9}
{"MOLECULE": "C=CC(=O)N1[C@@H]2CC[C@H]1C[C@H](Oc1cc3c(Nc4ccc(Cl)c(Cl)c4F)ncnc3cc1O[C@@H]1CCOC1)C2", "EXPERIMENTAL_READOUT": "IC50", "QUANTITATIVE_READOUT": 16}
{"MOLECULE": "C=CC(=O)N1[C@@H]2CC[C@H]1C[C@H](Oc1cc3c(Nc4ccc(Cl)c(Cl)c4)ncnc3cc1OC)C2", "EXPERIMENTAL_READOUT": "IC50", "QUANTITATIVE_READOUT": 15}
{"MOLECULE": "C=CC(=O)N1C[C@H]2C[C@@H](C1)[C@H]2Oc1cc2c(Nc3ccc(Cl)c(Cl)c3F)ncnc2cc1OCCO", "EXPERIMENTAL_READOUT": "IC50", "QUANTITATIVE_READOUT": 5}
{"MOLECULE": "C=CC(=O)N1C[C@H]2C[C@@H](C1)[C@H]2Oc1cc2c(Nc3ccc(Cl)c(Cl)c3F)ncnc2cc1OC", "EXPERIMENTAL_READOUT": "IC50", "QUANTITATIVE_READOUT": 2}
{"MOLECULE": "C=CC(=O)N1[C@@H]2CC[C@H]1C[C@H](Oc1cc3c(Nc4ccc(Cl)c(Cl)c4F)ncnc3cc1OCCO)C2", "EXPERIMENTAL_READOUT": "IC50", "QUANTITATIVE_READOUT": 6}
{"MOLECULE": "C=CC(=O)N1[C@@H]2CC[C@H]1C[C@@H](Oc1cc3c(Nc4ccc(Cl)c(Cl)c4F)ncnc3cc1OC)C2", "EXPERIMENTAL_READOUT": "IC50", "QUANTITATIVE_READOUT": 40}
{"MOLECULE": "C=CC(=O)N1[C@@H]2CC[C@H]1C[C@H](Oc1cc3c(Nc4cccc(Cl)c4F)ncnc3cc1OC)C2", "EXPERIMENTAL_READOUT": "IC50", "QUANTITATIVE_READOUT": 7}
{"MOLECULE": "C=CC(=O)N1[C@@H]2CC[C@H]1C[C@H](Oc1cc3c(Nc4ccc(Cl)c(Cl)c4F)ncnc3cc1OCC(F)(F)F)C2", "EXPERIMENTAL_READOUT": "IC50", "QUANTITATIVE_READOUT": 18}
{"MOLECULE": "C=CC(=O)N1[C@@H]2CC[C@H]1C[C@H](Oc1cc3c(Nc4ccc(F)c(Cl)c4)ncnc3cc1OC)C2", "EXPERIMENTAL_READOUT": "IC50", "QUANTITATIVE_READOUT": 11}
{"MOLECULE": "C=CC(=O)N1[C@@H]2CC[C@H]1C[C@H](Oc1cc3c(Nc4ccc(Cl)c(Cl)c4F)ncnc3cc1OC)C2", "EXPERIMENTAL_READOUT": "IC50", "QUANTITATIVE_READOUT": 6}
{"MOLECULE": "C=CC(=O)N1C[C@H]2C[C@@H](C1)[C@H]2Oc1cc2c(Nc3ccc(OC(F)(F)F)c(Cl)c3)ncnc2cc1OC", "EXPERIMENTAL_READOUT": "IC50", "QUANTITATIVE_READOUT": 2}
{"MOLECULE": "C=CC(=O)N1[C@@H]2CC[C@H]1C[C@H](Oc1cc3c(Nc4ccc(Cl)c(Cl)c4F)ncnc3cc1OCC(=O)NC)C2", "EXPERIMENTAL_READOUT": "IC50", "QUANTITATIVE_READOUT": 8}
{"MOLECULE": "C=CC(=O)N1[C@@H]2CC[C@H]1C[C@H](Nc1cc3c(Nc4ccc(Cl)c(Cl)c4F)ncnc3cc1OC)C2", "EXPERIMENTAL_READOUT": "IC50", "QUANTITATIVE_READOUT": 8}
{"MOLECULE": "C=CC(=O)N1[C@@H]2CC[C@H]1C[C@H](Oc1cc3c(Nc4ccc(Cl)c(Cl)c4F)ncnc3cc1OCCOC)C2", "EXPERIMENTAL_READOUT": "IC50", "QUANTITATIVE_READOUT": 12}
{"MOLECULE": "C=CC(=O)N1[C@@H]2CC[C@H]1C[C@H](Oc1cc3c(Nc4ccc(Cl)c(Cl)c4F)ncnc3cc1OCCC(C)(C)O)C2", "EXPERIMENTAL_READOUT": "IC50", "QUANTITATIVE_READOUT": 8}
{"MOLECULE": "C=CC(=O)N1C[C@H]2C[C@@H](C1)[C@H]2Nc1cc2c(Nc3ccc(Cl)c(Cl)c3F)ncnc2cc1OC", "EXPERIMENTAL_READOUT": "IC50", "QUANTITATIVE_READOUT": 9}
{"MOLECULE": "C=CC(=O)N1[C@@H]2CC[C@H]1C[C@H](Oc1cc3c(Nc4ccc(Cl)c(Cl)c4F)ncnc3cc1O[C@H]1CCOC1)C2", "EXPERIMENTAL_READOUT": "IC50", "QUANTITATIVE_READOUT": 8}
{"MOLECULE": "C=CC(=O)N1C[C@H]2C[C@@H](C1)[C@H]2Oc1cc2c(Nc3ccc(F)c(Cl)c3)ncnc2cc1OC", "EXPERIMENTAL_READOUT": "IC50", "QUANTITATIVE_READOUT": 2}
{"MOLECULE": "C=CC(=O)N1[C@@H]2CC[C@H]1C[C@H](Nc1cc3c(Nc4ccc(F)c(Cl)c4F)ncnc3cc1OC)C2", "EXPERIMENTAL_READOUT": "IC50", "QUANTITATIVE_READOUT": 9}
{"MOLECULE": "C=CC(=O)N1[C@@H]2CC[C@H]1C[C@H](Oc1cc3c(Nc4ccc(Cl)c(Cl)c4F)ncnc3cc1OCC)C2", "EXPERIMENTAL_READOUT": "IC50", "QUANTITATIVE_READOUT": 12}
{"MOLECULE": "C=CC(=O)N1[C@@H]2CC[C@H]1C[C@H](Oc1cc3c(Nc4ccc(F)c(Cl)c4F)ncnc3cc1OC)C2", "EXPERIMENTAL_READOUT": "IC50", "QUANTITATIVE_READOUT": 5}
{"MOLECULE": "C=CC(=O)N1C[C@H]2C[C@@H](C1)[C@H]2Oc1cc2c(Nc3ccc(Cl)c(Cl)c3F)ncnc2cc1OCCCN1CCOCC1", "EXPERIMENTAL_READOUT": "IC50", "QUANTITATIVE_READOUT": 9}
